System: Stenotrophomonas maltophilia (CAN-ICU 62585)
Assay: MIC, broth macrodilution (CLSI), S. maltophilia
Type: cell-based
Settings: S. maltophilia, footnote CAN-ICU 62584
Minimal Inhibitory Concentration (MIC) values by entry

Would you please look over these solved cases?
compound | measurement.label | recorded.value
CCCCCCNC(=O)OCC1OC(OC2C(OC(=O)NCCCCCC)C(N)CC(N)C2OC2OC(CN)C(OC(=O)NCCCCCC)C(OC(=O)NCCCCCC)C2N)C(OC(=O)NCCCCCC)C1OC1OC(CN)C(OC(=O)NCCCCCC)C(OC(=O)NCCCCCC)C1N.O=C(O)C(F)(F)F.O=C(O)C(F)(F)F.O=C(O)C(F)(F)F.O=C(O)C(F)(F)F.O=C(O)C(F)(F)F.O=C(O)C(F)(F)F (centres unmarked) [Compound 3] | Minimal Inhibitory Concentration (MIC) | >256 µg/mL
NCCC(OCc1ccc(Cl)cc1)C(=O)NC1CC(N)C(OC2OC(CN)C(OCc3ccc(Cl)cc3)C(OCc3ccc(Cl)cc3)C2OCc2ccc(Cl)cc2)C(OCc2ccc(Cl)cc2)C1OC1OC(COCc2ccc(Cl)cc2)C(OCc2ccc(Cl)cc2)C(N)C1OCc1ccc(Cl)cc1.O=C(O)C(F)(F)F.O=C(O)C(F)(F)F.O=C(O)C(F)(F)F.O=C(O)C(F)(F)F (centres unmarked) [Compound 19] | Minimal Inhibitory Concentration (MIC) | >256 µg/mL
NCC1OC(OC2C(N)CC(N)C(OC3OC(COCc4ccc(Cl)cc4)C(OCc4ccc(Cl)cc4)C(N)C3OCc3ccc(Cl)cc3)C2OCc2ccc(Cl)cc2)C(OCc2ccc(Cl)cc2)C(OCc2ccc(Cl)cc2)C1OCc1ccc(Cl)cc1.O=C(O)C(F)(F)F.O=C(O)C(F)(F)F.O=C(O)C(F)(F)F.O=C(O)C(F)(F)F (centres unmarked) [Compound 16] | Minimal Inhibitory Concentration (MIC) | >128 µg/mL
NC[C@H]1O[C@H](O[C@H]2[C@H](O)[C@@H](O[C@H]3O[C@H](CO)[C@@H](O)[C@H](N)[C@H]3O)[C@H](N)C[C@@H]2N)[C@H](O)[C@@H](O)[C@@H]1O [Kanamycin A, reference compound] | Minimal Inhibitory Concentration (MIC) | >512 µg/mL
NC[C@@H]1O[C@H](O[C@H]2[C@@H](O)[C@H](O[C@@H]3[C@@H](O)[C@H](N)C[C@H](N)[C@H]3O[C@H]3O[C@H](CN)[C@@H](O)[C@H](O)[C@H]3N)O[C@@H]2CO)[C@H](N)[C@@H](O)[C@@H]1O [Neomycin B, reference compound] | Minimal Inhibitory Concentration (MIC) | >512 µg/mL
COCC1OC(OC2C(NC(=O)C(CCN)OC)CC(N)C(OC3OC(CN)C(OC)C(OC)C3OC)C2OC)C(OC)C(N)C1OC.O=C(O)C(F)(F)F.O=C(O)C(F)(F)F.O=C(O)C(F)(F)F.O=C(O)C(F)(F)F (centres unmarked) [Compound 20] | Minimal Inhibitory Concentration (MIC) | >256 µg/mL
CN(C)c1ccc(NC(=O)OCC2OC(OC3C(N)CC(N)C(OC4OC(CN)C(OC(=O)Nc5ccc(N(C)C)cc5)C(OC(=O)Nc5ccc(N(C)C)cc5)C4OC(=O)Nc4ccc(N(C)C)cc4)C3OC(=O)Nc3ccc(N(C)C)cc3)C(OC(=O)Nc3ccc(N(C)C)cc3)C(N)C2OC(=O)Nc2ccc(N(C)C)cc2)cc1.O=C(O)C(F)(F)F.O=C(O)C(F)(F)F.O=C(O)C(F)(F)F.O=C(O)C(F)(F)F.O=C(O)C(F)(F)F.O=C(O)C(F)(F)F.O=C(O)C(F)(F)F.O=C(O)C(F)(F)F.O=C(O)C(F)(F)F.O=C(O)C(F)(F)F.O=C(O)C(F)(F)F (centres unmarked) [Compound 7] | Minimal Inhibitory Concentration (MIC) | >256 µg/mL

Kindly review the next compound as well.
Ask: # get_value(readout= Minimal Inhibitory Concentration (MIC), system= Stenotrophomonas maltophilia (CAN-ICU 62585)) for COCC1OC(OC2C(OC)C(N)CC(N)C2OC2OC(CN)C(OC)C(OC)C2N)C(OC)C1OC1OC(CN)C(OC)C(OC)C1N.O=C(O)C(F)(F)F.O=C(O)C(F)(F)F.O=C(O)C(F)(F)F.O=C(O)C(F)(F)F.O=C(O)C(F)(F)F.O=C(O)C(F)(F)F (centres unmarked) [Compound 14]
Reply: >256 µg/mL
